Test system: SK-MEL-28 melanoma
Experiment: NCI tumour cell line growth inhibition, 48 h
Attribute: TGI

A selection of reference data follows.
- COC(=O)C1C(OS(=O)(=O)O)CCC2CN3CCc4c([nH]c5ccccc45)C3CC21 (stereo not given): > 100 µM
- C[C@H]1[C@H](N2CCCC2)O[Si](C(C)(C)C)(C(C)(C)C)[C@@H]1C: > 100 µM
- c1cc[n+](C2c3ccccc3C([n+]3ccccc3)c3ccccc32)cc1 (stereo not given): > 44.5 µM
- Cc1ccc(C(=O)N/N=C(\N=Nc2cccc([N+](=O)[O-])c2)c2ccc(N(C)C)cc2)cc1: > 100 µM
- O=C(c1ccc(Cl)cc1)N(C(=S)OC12CC3CC(CC(C3)C1)C2)c1ccccc1: > 100 µM

Please state recorded TGI (tested on SK-MEL-28 melanoma) of COC(=O)Cc1cc2c(cc1C(=O)c1ccc(N)cc1)OCO2
> 100 µM

Please provide the recorded TGI for C=C(CBr)CCCOCc1ccccc1 , tested on SK-MEL-28 melanoma.
> 100 µM

Please provide the recorded TGI for Nc1ccc(S(=O)(=O)c2ccc(N)cc2)cc1 , tested on SK-MEL-28 melanoma.
> 100 µM

Item O=C(c1ccc(Cl)c(Cl)c1)N1CCN(C(=O)c2ccc(Cl)c(Cl)c2)C1=S with SK-MEL-28 melanoma - TGI?
69.8 µM

Lab note: need TGI with SK-MEL-28 melanoma for entry O=C1C[C@@H](Sc2ccccc2)C2(OCCO2)C2ON3CCCC[C@H]3[C@H]12 (stereo not given in full) , please look it up.
41.6 µM
